tested on: Candida albicans; test: Anti-fungal activity against Candida albicans assessed as inhibition of fungal growth; assay type: functional; conditions: Candida albicans; read-out: MIC
Measured MIC, listed per entry.
Write the answer as a number in µM, unit excluded.

-- ask Entry CCCCc1nc(Cl)c(C2NC(=O)NC(CN3CCN(CC(=O)c4ccc(C)cc4)CC3)=C2C(=O)OCC)[nH]1 (stereo unspecified) : reported MIC = ?
-- reply 460

###

test system: Candida albicans; test: Anti-fungal activity against Candida albicans 90023 assessed as inhibition of fungal growth; assay type: functional
Measured MIC, listed per entry.
Write the answer as a number in µM, unit excluded.

Here is how some compounds turned out for MIC.
1) OC(Cn1cncn1)(Cn1cncn1)c1ccc(F)cc1F [FLUCONAZOLE] :: 7
2) CCOC(=O)C1=C(CN2CCN(C(=O)/C(=N/OC)c3csc(N)n3)CC2)NC(=O)NC1c1cccc(O)c1 (stereo not drawn) :: 7

-- ask Entry CCOC(=O)C1=C(CN2CCN(C(=O)/C(=N/OC)c3csc(N)n3)CC2)NC(=O)NC1c1ccc(O)c(OC)c1 (stereo not drawn) : reported MIC = ?
-- reply 444

-- ask Entry CCOC(=O)C1=C(CN2CCN(C(=O)/C(=N/OC)c3csc(N)n3)CC2)NC(=O)NC1c1ccc(Cl)cc1Cl (stereo not drawn) : reported MIC = ?
-- reply 449

-- ask Entry CCCCc1nc(Cl)c(C2NC(=O)NC(CN3CCN(CC(=O)c4nccs4)CC3)=C2C(=O)OCC)[nH]1 (stereo not drawn) : reported MIC = ?
-- reply 29

-- ask Entry CCOC(=O)C1=C(CN2CCN(C(=O)/C(=N/OC)c3csc(N)n3)CC2)NC(=O)NC1c1ccc(F)cc1 (stereo not drawn) : reported MIC = ?
-- reply 6

-- ask Entry CCCCc1nc(Cl)c(C2NC(=O)NC(CN3CCN(C(=O)/C(=N/OC)c4csc(N)n4)CC3)=C2C(=O)OCC)[nH]1 (stereo not drawn) : reported MIC = ?
-- reply 53

-- ask Entry CCOC(=O)C1=C(CN2CCNCC2)NC(=O)NC1c1ccc2c(c1)c1ccccc1n2CC (stereo not drawn) : reported MIC = ?
-- reply 59
